B1: CLCN6 (parent)
chain: VGEIVGIITRHNLTYEFLQARLRQ

- Variants of: B1
- TEST_SUMMARY: protein stability index of a GFP-peptide fusion (GPS, HEK-293T) (PSI 1-6); higher = more stable;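 further: lentivirally expressed fusions sorted by FACS into six bins by GFP to DsRed ratio, PSI derived from sequencing read proportions per bin multiplied by bin number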
- SETUP_CONDITIONS: c terminus: a fixed tail appended
Criterion: protein stability index meeting or surpassing 2. Met: label 1. Not met: label 0.

mutation=L13H answer_label="label 0"
mutation=G6P answer_label="label 0"
mutation=T14E answer_label="label 0"
mutation=V5T answer_label="label 0"
mutation=I8E answer_label="label 1"
mutation=V1N answer_label="label 1"
mutation=E3V answer_label="label 1"
mutation=Y15D answer_label="label 0"
mutation=I7A answer_label="label 0"
mutation=L18A answer_label="label 1"
mutation=T9F answer_label="label 1"
